target: glucagon receptor (GCGR), primary cAMP assay cell line (human, UniProt P47871 26-477); test: cell-based or functional assay
Sequence (P47871 26-477): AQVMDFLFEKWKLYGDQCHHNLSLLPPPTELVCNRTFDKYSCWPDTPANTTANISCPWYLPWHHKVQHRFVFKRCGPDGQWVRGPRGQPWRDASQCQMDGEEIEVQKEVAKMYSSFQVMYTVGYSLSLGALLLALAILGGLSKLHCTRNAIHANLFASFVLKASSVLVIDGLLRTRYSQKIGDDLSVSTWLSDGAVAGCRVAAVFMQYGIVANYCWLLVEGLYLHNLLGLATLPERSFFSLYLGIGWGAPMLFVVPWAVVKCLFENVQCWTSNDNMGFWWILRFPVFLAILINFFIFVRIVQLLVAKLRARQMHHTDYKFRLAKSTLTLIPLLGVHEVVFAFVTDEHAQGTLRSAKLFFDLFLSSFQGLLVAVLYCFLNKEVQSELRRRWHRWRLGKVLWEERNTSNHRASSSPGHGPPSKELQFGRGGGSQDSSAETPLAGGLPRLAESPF
Starred links: 1 amine or outer side, 2 acyl side, 3 side chain; linkers in the order of their positions; H or OH if unused. Non-standard residues stand in square brackets, D forms with d. Groups on a side chain read outwards from the residue. Primed or numbered codes have the meaning given here. No end group written: not given here. *: point of attachment. γGlu = O=C(O)[C@H](CCC(=O)[*:2])N[*:1]; αMeF = C[C@](N)(Cc1ccccc1)C(=O)O; αMeK = C[C@](N)(CCCCN)C(=O)O; Lauroyl = CCCCCCCCCCCC(=O)*; αMeS = C[C@](N)(CO)C(=O)O; PEG2′ = not defined here; Aib = CC(C)(N)C(=O)O
measure: cAMP Primary assay EC50, n2 (nM)
One number for each entry, in nM.

The following binders have reported results that may help.
| binder | cAMP Primary assay EC50, n2 (nM) |
| --- | --- |
| H[Aib]EGS[αMeF]TSDK([PEG2′-PEG2′-γGlu-Lauroyl])SSYLEGK([PEG2′-PEG2′-γGlu-Lauroyl])AA[αMeK]EFIK([PEG2′-PEG2′-γGlu-Lauroyl])FVVEGG-NH2 [SEQ ID NO: 440] | 19.7 |
| H[Aib]EGS[αMeF]TSDV[αMeS]SK([PEG2′-PEG2′-γGlu-Lauroyl])LEGK([PEG2′-PEG2′-γGlu-Lauroyl])AA[αMeK]EFIAK([PEG2′-PEG2′-γGlu-Lauroyl])VVEGG-NH2 [SEQ ID NO: 464] | 20.2 |
| H[Aib]EGS[αMeF]TSDVSK([PEG2′-PEG2′-γGlu-Lauroyl])YLEGK([PEG2′-PEG2′-γGlu-Lauroyl])AA[αMeK]EFIAK([PEG2′-PEG2′-γGlu-Lauroyl])VVEGG-NH2 [SEQ ID NO: 460] | 20 |
| H[Aib]EGS[αMeF]TSDVSK([PEG2′-PEG2′-γGlu-Lauroyl])YLEGEAA[αMeK]K([PEG2′-PEG2′-γGlu-Lauroyl])FIK([PEG2′-PEG2′-γGlu-Lauroyl])FVVEGG-NH2 [SEQ ID NO: 446] | 19.7 |
| H[Aib]EGS[αMeF]TSDV[αMeS]SK([PEG2′-PEG2′-γGlu-Lauroyl])LEGEK([PEG2′-PEG2′-γGlu-Lauroyl])A[αMeK]EFIK([PEG2′-PEG2′-γGlu-Lauroyl])FVVEGG-NH2 [SEQ ID NO: 449] | 19.7 |

Count: 2. Required value per item: cAMP Primary assay EC50, n2.
1. H[Aib]EGS[αMeF]TSDV[αMeS]SYK([PEG2′-PEG2′-γGlu-Lauroyl])EGEAA[αMeK]K([PEG2′-PEG2′-γGlu-Lauroyl])FIAFK([PEG2′-PEG2′-γGlu-Lauroyl])VEGG-NH2 [SEQ ID NO: 486]
2. H[Aib]EGS[αMeF]TSDV[αMeS]SYK([PEG2′-PEG2′-γGlu-Lauroyl])EK([PEG2′-PEG2′-γGlu-Lauroyl])EAA[αMeK]EFIAFK([PEG2′-PEG2′-γGlu-Lauroyl])VEGG-NH2 [SEQ ID NO: 483]

Output:
19.9
19.6
